Where these numbers come from: paper PMC12154458

biological target: recombinant human acetylcholinesterase, rHsAChE (Homo sapiens, UniProt P22303); test: biochemical; conditions: read-out: qAC50 (IC50), rHsAChE
Sequence (P22303 32-614): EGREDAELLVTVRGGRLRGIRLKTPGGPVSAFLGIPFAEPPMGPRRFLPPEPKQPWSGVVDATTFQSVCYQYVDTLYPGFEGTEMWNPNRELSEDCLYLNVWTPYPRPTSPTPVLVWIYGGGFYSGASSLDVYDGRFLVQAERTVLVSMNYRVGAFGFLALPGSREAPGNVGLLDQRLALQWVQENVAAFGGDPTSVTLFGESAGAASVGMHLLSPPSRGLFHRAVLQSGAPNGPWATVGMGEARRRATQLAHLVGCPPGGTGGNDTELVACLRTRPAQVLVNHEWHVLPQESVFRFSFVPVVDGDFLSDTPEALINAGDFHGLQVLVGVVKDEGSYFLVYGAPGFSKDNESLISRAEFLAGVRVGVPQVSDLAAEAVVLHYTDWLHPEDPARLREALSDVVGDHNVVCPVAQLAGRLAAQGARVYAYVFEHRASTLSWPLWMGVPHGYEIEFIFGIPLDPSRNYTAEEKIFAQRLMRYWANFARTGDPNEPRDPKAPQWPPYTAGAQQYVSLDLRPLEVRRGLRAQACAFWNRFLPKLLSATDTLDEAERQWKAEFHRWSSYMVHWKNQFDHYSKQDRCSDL

compound: Cc1nc2sccn2c(=O)c1CCN1CCC(=C(c2ccc(F)cc2)c2ccc(F)cc2)CC1 [BRD-K40887525-001-23-5]
IC50: 10.9 µM
--
compound: COC(=O)CCSCc1ccc(-c2onc(C)c2NC(=O)OC(C)c2ccccc2Cl)cc1 (stereo not shown) [BRD-A94323479-001-02-8]
IC50: > 38 µM
--
compound: C[C@]12CCC3c4ccc(O)cc4CCC3C1CC[C@@H]2OC(=O)CCC1CCCC1 (stereo partly shown) [BRD-A91452556-001-04-0]
IC50: > 38 µM
--
compound: CCCCc1oc2ccccc2c1C(=O)c1cc(I)c(OCCN(CC)CC)c(I)c1 [BRD-K17561142-003-35-8]
IC50: > 38 µM
--
compound: Clc1ccc(CSC(Cn2ccnc2)c2ccc(Cl)cc2Cl)cc1 (stereo not shown) [BRD-A70649075-008-30-8]
IC50: > 38 µM
--
compound: Cc1cc(SCc2sc(-c3ccc(C(F)(F)F)cc3)nc2C)ccc1OCC(=O)O [BRD-K14880289-001-03-0]
IC50: 10.5 µM
--
compound: C[C@]12CC[C@@H]3c4ccc(O)cc4C[C@@H](CCCCCCCCC[S+]([O-])CCCC(F)(F)C(F)(F)F)[C@H]3[C@@H]1CC[C@@H]2O (stereo partly shown) [BRD-A85667082-001-11-9]
IC50: > 13.5 µM
